Assay: Protein binding in rat serum
Type: ADME, cell-free
PROPERTY_NAME: fraction unbound

>>> df
                               query_smiles  numeric_value
0  O=C(N[C@@H]1CCOC[C@@H]1C(=O)NO)c1ccc(Cn2c(C(F)(F)F)nc3ccccc32)cc1            0.2

----------
Biological target: Neutrophil collagenase (Homo sapiens)
Sequence (P22894 whole entry): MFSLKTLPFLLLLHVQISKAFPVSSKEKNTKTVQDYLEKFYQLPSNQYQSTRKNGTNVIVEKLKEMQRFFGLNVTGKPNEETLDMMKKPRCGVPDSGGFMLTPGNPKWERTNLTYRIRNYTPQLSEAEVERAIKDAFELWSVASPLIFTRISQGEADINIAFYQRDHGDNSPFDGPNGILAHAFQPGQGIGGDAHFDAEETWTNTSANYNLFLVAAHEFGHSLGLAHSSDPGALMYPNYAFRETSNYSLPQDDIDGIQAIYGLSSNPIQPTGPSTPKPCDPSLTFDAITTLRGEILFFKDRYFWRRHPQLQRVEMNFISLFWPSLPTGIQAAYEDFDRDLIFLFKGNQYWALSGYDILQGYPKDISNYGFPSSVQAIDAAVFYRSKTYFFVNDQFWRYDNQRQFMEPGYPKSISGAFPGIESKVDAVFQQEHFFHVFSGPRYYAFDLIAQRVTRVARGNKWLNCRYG
Test: Inhibition of MMP8
PROPERTY_NAME: Ki

In [3]: df
Out[3]:
                               query_smiles     result
0  CC(C)c1nc2ccccc2n1Cc1ccc(C(=O)N[C@@H]2CN(C(=O)OC(C)(C)C)C[C@@H]2C(=O)NO)cc1  > 3.06 µM

----------
Observed Ki, system UniProt:P51512.
PROPERTY_NAME: Ki

                               query_smiles     measured_on  property_name     result
0  CC(C)c1nc2ccccc2n1Cc1ccc(C(=O)N[C@@H]2CN(C(=O)OC(C)(C)C)C[C@@H]2C(=O)NO)cc1  UniProt:P51512             Ki  > 5.55 µM
1  Cc1nc2ccccc2n1Cc1ccc(C(=O)N[C@@H]2CN(C(=O)OC(C)(C)C)C[C@@H]2C(=O)NO)cc1  UniProt:P51512             Ki  > 5.55 µM

----------
Observed pIC50, system Disintegrin and metalloproteinase domain-containing protein 17 (Sus scrofa).
pIC50: −log10 of the molar value.
PROPERTY_NAME: pIC50

>>> df
                                query_smiles  result_qualifier  numeric_value
 0  CC(C)c1nc2ccccc2n1Cc1ccc(C(=O)N[C@@H]2CCC[C@@H]2C(=O)NO)cc1                 =           9.00
 1  CC(C)(C)c1nc2ccccc2n1Cc1ccc(C(=O)N[C@@H]2C[C@@]3(CCCO3)C[C@@H]2C(=O)NO)cc1                 =           8.70
 2  O=C(N[C@@H]1C[C@@]2(CCCO2)C[C@@H]1C(=O)NO)c1ccc(Cn2c(C3CC3)nc3ccccc32)cc1                 =           8.89
 3  Cc1nc2ccccc2n1Cc1ccc(C(=O)N[C@@H]2CN(C(=O)OC(C)(C)C)C[C@@H]2C(=O)NO)cc1                 =           9.00
 4  CC(C)c1nc2ccccc2n1Cc1ccc(C(=O)N[C@@H]2CCOC[C@@H]2C(=O)NO)cc1                 =           8.80
 5  CSc1nc2ccccc2n1Cc1ccc(C(=O)N[C@@H]2CNC[C@@H]2C(=O)NO)cc1                 =           8.80
 6  CC(C)c1nc2ccccc2n1Cc1ccc(C(=O)N[C@@H]2C[C@@]3(CCCO3)C[C@@H]2C(=O)NO)cc1                 =           8.96
 7  CC(F)(F)c1nc2ccccc2n1Cc1ccc(C(=O)N[C@@H]2CCOC[C@@H]2C(=O)NO)cc1                 =           8.59
 8  CC(C)c1nc2ccccc2n1Cc1ccc(C(=O)N[C@@H]2CNC[C@@H]2C(=O)NO)cc1                 =           8.80
 9  CC(C)c1nc2ccccc2n1Cc1ccc(C(=O)N[C@@H]2CN(C(=O)OC(C)(C)C)C[C@@H]2C(=O)NO)cc1                 =           9.00
10  C#CCN1C[C@H](C(=O)NO)[C@H](NC(=O)c2ccc(Cn3c(C(C)(C)C)nc4ccccc43)cc2)C1                 =           8.64
11  CSc1nc2ccccc2n1Cc1ccc(C(=O)N[C@@H]2CN(C(=O)OC(C)(C)C)C[C@@H]2C(=O)NO)cc1                 >           9.00
12  CC(C)(F)c1nc2ccccc2n1Cc1ccc(C(=O)N[C@@H]2C[C@@]3(CCCO3)C[C@@H]2C(=O)NO)cc1                 >           9.00
13  CSc1nc2ccccc2n1Cc1ccc([C@]2(N)CCN([C@H](CC(C)C)C(=O)NO)C2=O)cc1                 =           8.21
14  O=C(N[C@@H]1CCC[C@@H]1C(=O)NO)c1ccc(Cn2c(C3CC3)nc3ccccc32)cc1                 =           8.57
15  O=C(N[C@@H]1COC[C@@H]1C(=O)NO)c1ccc(Cn2c(C(F)(F)F)nc3ccccc32)cc1                 =           9.00
16  CC(C)(F)c1nc2ccccc2n1Cc1ccc(C(=O)N[C@@H]2CCOC[C@@H]2C(=O)NO)cc1                 =           8.66
17  Cc1nc2ccccc2n1Cc1ccc(C(=O)N[C@@H]2CNC[C@@H]2C(=O)NO)cc1                 =           8.59
18  C#CCN1C[C@H](C(=O)NO)[C@H](NC(=O)c2ccc(Cn3c(C(C)C)nc4ccccc43)cc2)C1                 =           8.74
